- ASSAYED_TARGET: rat TAP1-NBD (Rattus norvegicus, UniProt P36370)
- Construct: monomer-homodimer equilibrium
- Sequence (P36370 465-725): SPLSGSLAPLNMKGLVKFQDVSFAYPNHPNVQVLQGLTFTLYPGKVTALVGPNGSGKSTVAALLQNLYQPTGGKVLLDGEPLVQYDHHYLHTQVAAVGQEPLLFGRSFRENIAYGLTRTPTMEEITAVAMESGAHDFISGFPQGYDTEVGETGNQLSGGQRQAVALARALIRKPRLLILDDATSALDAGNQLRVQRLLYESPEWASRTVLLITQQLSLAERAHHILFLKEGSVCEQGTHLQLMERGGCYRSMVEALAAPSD
- PROTOCOL_DESCRIPTION: biochemical
- Parameters: fluorescence polarization competition of unlabelled nucleotide against 1 uM ATP-Bodipy, TAP1-NBD
- RUN_PARAMETERS: read-out: IC50 (µM) ATP
PARAMETER_MEASURED: IC50 (µM)
Give just the number in µM; leave the unit off.

Ask: Name the recorded IC50 for Nc1ncnc2c1ncn2[C@@H]1O[C@H](COP(=O)(O)OP(=O)(O)OP(=O)(O)O)[C@@H](O)[C@H]1O .
Result: 139

====

- ASSAYED_TARGET: rat TAP1-NBD (Rattus norvegicus, UniProt P36370)
- Construct: monomer-homodimer equilibrium
- PROTOCOL_DESCRIPTION: biochemical
- Parameters: fluorescence polarization competition of unlabelled nucleotide against 1 uM ATP-Bodipy, TAP1-NBD
- RUN_PARAMETERS: read-out: IC50 (µM) ADP
PARAMETER_MEASURED: IC50 (µM)
Give just the number in µM; leave the unit off.

Ask: IC50 of Nc1ncnc2c1ncn2[C@@H]1O[C@H](COP(=O)(O)OP(=O)(O)O)[C@@H](O)[C@H]1O on rat TAP1-NBD (Rattus norvegicus, UniProt P36370)?
Result: 69

====

- ASSAYED_TARGET: TAP (TAP1/TAP2 complex; wt TAP) (Homo sapiens, UniProt Q03518+Q03519)
- Construct: full-length heterodimer from Sf9 insect cells (baculovirus), purified and reconstituted in proteoliposomes, or in membranes
- Sequence (Q03518 1-748): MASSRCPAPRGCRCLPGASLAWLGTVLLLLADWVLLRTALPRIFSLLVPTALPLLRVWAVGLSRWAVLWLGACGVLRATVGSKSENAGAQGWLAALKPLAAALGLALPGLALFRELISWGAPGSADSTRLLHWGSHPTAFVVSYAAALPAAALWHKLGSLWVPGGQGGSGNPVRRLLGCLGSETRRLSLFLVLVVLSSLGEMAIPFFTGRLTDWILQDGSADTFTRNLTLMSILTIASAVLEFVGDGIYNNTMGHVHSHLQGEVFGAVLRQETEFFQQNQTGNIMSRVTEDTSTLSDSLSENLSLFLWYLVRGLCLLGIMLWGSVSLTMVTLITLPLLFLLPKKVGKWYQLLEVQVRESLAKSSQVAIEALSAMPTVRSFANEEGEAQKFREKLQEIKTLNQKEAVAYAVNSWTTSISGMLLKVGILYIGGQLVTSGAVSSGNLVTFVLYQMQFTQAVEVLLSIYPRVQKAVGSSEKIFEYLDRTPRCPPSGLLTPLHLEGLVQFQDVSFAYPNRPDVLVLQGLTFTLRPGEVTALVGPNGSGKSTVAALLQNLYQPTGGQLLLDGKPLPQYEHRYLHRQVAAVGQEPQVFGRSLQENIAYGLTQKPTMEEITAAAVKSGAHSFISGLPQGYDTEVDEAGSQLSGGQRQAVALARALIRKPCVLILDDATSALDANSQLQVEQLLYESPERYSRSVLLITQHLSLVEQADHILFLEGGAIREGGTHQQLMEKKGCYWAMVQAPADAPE
- Sequence (Q03519 1-686): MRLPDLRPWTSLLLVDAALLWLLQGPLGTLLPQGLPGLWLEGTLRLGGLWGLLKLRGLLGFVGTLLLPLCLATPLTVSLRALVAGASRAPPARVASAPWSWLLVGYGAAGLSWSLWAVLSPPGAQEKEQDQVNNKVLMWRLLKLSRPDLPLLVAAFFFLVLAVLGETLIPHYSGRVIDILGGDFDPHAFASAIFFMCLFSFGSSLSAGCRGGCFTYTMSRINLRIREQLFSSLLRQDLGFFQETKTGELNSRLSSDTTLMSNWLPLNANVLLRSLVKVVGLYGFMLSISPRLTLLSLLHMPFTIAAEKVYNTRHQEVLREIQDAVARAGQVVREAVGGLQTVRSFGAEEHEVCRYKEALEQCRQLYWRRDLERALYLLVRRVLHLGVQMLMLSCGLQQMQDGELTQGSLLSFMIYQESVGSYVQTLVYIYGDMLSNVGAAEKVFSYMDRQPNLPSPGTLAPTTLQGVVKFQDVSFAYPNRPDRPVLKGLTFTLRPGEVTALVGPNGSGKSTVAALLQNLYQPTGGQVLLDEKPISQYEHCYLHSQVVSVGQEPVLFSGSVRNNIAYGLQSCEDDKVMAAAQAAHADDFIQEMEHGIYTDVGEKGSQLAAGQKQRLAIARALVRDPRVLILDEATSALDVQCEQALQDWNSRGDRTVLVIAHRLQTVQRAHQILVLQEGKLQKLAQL
- PROTOCOL_DESCRIPTION: biochemical
- RUN_PARAMETERS: read-out: ATP binding IC50
PARAMETER_MEASURED: pIC50
FYI, pIC50 means -log10 of a concentration in mol per litre.

Ask: pIC50 of Nc1ncnc2c1ncn2[C@@H]1O[C@H](COP(=O)(O)OP(=O)(O)OP(=O)(O)O)[C@@H](O)[C@H]1O [ATP] on TAP (TAP1/TAP2 complex; wt TAP) (Homo sapiens, UniProt Q03518+Q03519)?
Result: 5.00
